test: Caspase-3/7 induction in HepG2 cells by small molecules, qHTS cell viability counter screen (AID 1346981); conditions: CellTiter-Fluor fluorescence, 17 h; series mostly up to 92.4 µM; further: nearly all actives have a fitted effect of over 30% in size
Records with an inconclusive call do not appear. The source made the active and inactive calls. The call rests on the fitted dose curve; in most records, active means well fitted cell-killing curve with a large enough effect in the repeat runs; inconclusive means weak or mixed curves, or effect the other way; inactive means flat fitted curve, though single readings scatter.
Field 'call' accepts active, inactive

CCCC[N+]1(C)[C@@H]2CC(OC(=O)[C@H](CO)c3ccccc3)C[C@H]1[C@@H]1O[C@@H]12 (some centres not stated): inactive
C[N+]1(CCF)[C@@H]2CC[C@H]1CC(OC(=O)C(O)(c1ccccc1)c1ccccc1)C2 (some centres not stated): inactive
CC1(C)CC(=O)CC(C)(C)N1[O]: inactive

What is the recorded call for this molecule in the test? CCOP(=O)(SC(C)CC)N1CCSC1=O (configuration not stated)
inactive

What is the recorded call for this molecule in the test? O=C1NC(=O)C(=O)C(=O)N1
inactive

What is the recorded call for this molecule in the test? Nc1cccc2ccccc12
inactive

What is the recorded call for this molecule in the test? CC(C)(C)OOC(C)(C)CCC(C)(C)OOC(C)(C)C
inactive

What is the recorded call for this molecule in the test? CC(C)C1(C)N=C(c2ncccc2C(=O)O)NC1=O (configuration not stated)
inactive

What is the recorded call for this molecule in the test? C#C[C@]1(O)CC[C@H]2[C@@H]3CCC4=CC(=O)CCC4=C3C=C[C@@]21CC
inactive

What is the recorded call for this molecule in the test? O=S(=O)(Cl)Cl
inactive

What is the recorded call for this molecule in the test? O=C(Cl)OCCOCCOC(=O)Cl
inactive

What is the recorded call for this molecule in the test? COc1ccc2c(c1OC)C(=O)O[C@H]2[C@@H]1c2cc3c(cc2CCN1C)OCO3
active
